- Test system: SKBR3 (PI3Kα-Wild Type) cell line
- Procedure Summary: HTRF phospho-AKT(S473) cell assay in SKBR3 cells
- Type: cell-based, human
- Protocol Conditions: Homo sapiens, SK-BR-3; HTRF phospho-AKT(S473), SKBR3 (PI3Kα-Wild Type) cells, 2 hours compound incubation, PDGF-BB stimulated
Give measured IC50 for each item. Keep answers brief.

The following compounds have reported results that may help.
COc1cccc(N2CCN(c3nc4c([C@@H](C)Nc5ccc(Cl)nc5C(=O)NS(C)(=O)=O)cc(C)cc4c(=O)n3C)CC2)n1 [Compound 596] = ≥ 5 µM
Cc1cc([C@@H](C)Nc2ccc(Cl)nc2C(=O)NS(C)(=O)=O)c2nc(-c3ccc(-c4ncc(C#N)cc4C)c(F)c3)n(C)c(=O)c2c1 [Compound 799] = ≥ 5 µM
Cc1cc([C@@H](C)Nc2ccc(Cl)nc2C(=O)NS(C)(=O)=O)c2nc(N3CCC(C)(c4cc[nH]n4)CC3)n(C)c(=O)c2c1 [Compound 552] = ≥ 5 µM
Cc1cc([C@@H](C)Nc2ccc(Cl)nc2C(=O)NS(C)(=O)=O)c2nc([C@H]3CCCN(c4nccc(C)n4)C3)n(C)c(=O)c2c1 (mixture of isomers) [Compound 756] = ≥ 5 µM
Cc1cc([C@@H](C)Nc2ccc(Cl)nc2C(=O)NS(C)(=O)=O)c2nc(N3C[C@H]4C[C@@H](C3)C4c3n[nH]cc3F)n(C)c(=O)c2c1 (mixture of isomers) [Compound 650] = ≥ 5 µM

Attention now turns to another entry.
Input Cc1cc([C@@H](C)Nc2ccc(Cl)nc2C(=O)NS(C)(=O)=O)c2nc(N3CC[C@H](c4cnc(C)c(C#N)c4)C3)n(C)c(=O)c2c1 (single isomer, unassigned) [Compound 655] , output reported IC50.
≥ 5 µM

###

- Tested on: T47D (PI3Kα-H1047R) cell line
- Procedure Summary: HTRF phospho-AKT(S473) cell assay in T47D cells
- Assay type: cell-based, human
- Protocol Conditions: Homo sapiens; HTRF phospho-AKT(S473), T47D (PI3Kα-H1047R) cells, 2 hours compound incubation
pIC50: −log10 of the molar value.
Endpoint Name: pIC50

For each of the compounds below, state pIC50.
1. Cc1cc([C@@H](C)Nc2ccc(Cl)nc2C(=O)NS(C)(=O)=O)c2nc(-c3ccc4nn(CCO)cc4c3)n(C)c(=O)c2c1 [Compound 797]
2. Cc1cc([C@@H](C)Nc2ccc(Cl)nc2C(=O)NS(C)(=O)=O)c2nc(N3CCC(c4cc5ccccn5n4)CC3)n(C)c(=O)c2c1 [Compound 692]
3. Cc1cc([C@@H](C)Nc2ccc(Cl)nc2C(=O)NS(C)(=O)=O)c2nc(-c3ccnc(O[C@@H]4CCNCC4(F)F)c3)n(C)c(=O)c2c1 [Compound 808]
4. CCn1c(N2C[C@@H]3[C@H](C2)[C@H]3c2cnc(C)cn2)nc2c([C@@H](C)Nc3ccc(Cl)nc3C(=O)NS(C)(=O)=O)cc(C)cc2c1=O [Compound 572]
5. Cc1cc([C@@H](C)Nc2ccc(Cl)nc2C(=O)NS(C)(=O)=O)c2nc(N3CC[C@H](Oc4cnc(C)nc4)C3)n(C)c(=O)c2c1 [Compound 512]
6. Cc1ccn(C2CCN(c3nc4c([C@@H](C)Nc5ccc(Cl)nc5C(=O)NS(C)(=O)=O)cc(C)cc4c(=O)n3C)CC2)c(=O)c1 [Compound 753]
7. Cc1cc([C@@H](C)Nc2ccc(Cl)nc2C(=O)NS(C)(=O)=O)c2nc(N3C[C@@H]4[C@H](C3)[C@H]4c3cc[nH]n3)n(C)c(=O)c2c1 [Compound 699]

1: > 6.60; 2: 6.30 to 6.60; 3: 6.30 to 6.60; 4: > 6.60; 5: 6.30 to 6.60; 6: > 6.60; 7: 6.30 to 6.60

###

- Test system: SKBR3 (PI3Kα-Wild Type) cell line
- Procedure Summary: HTRF phospho-AKT(S473) cell assay in SKBR3 cells
- Assay type: cell-based, human
- Protocol Conditions: Homo sapiens, SK-BR-3; SKBR3 (PI3Kα-Wild Type) cells, HTRF phospho-AKT(S473), 2 hours compound incubation, PDGF-BB stimulated
pIC50: −log10 of the molar value.
Endpoint Name: pIC50

The following molecules have reported results that may help.
Cc1cc([C@@H](C)Nc2ccccc2S(N)(=O)=O)c2nc(N3Cc4ccc(F)cc4C3)n(C)c(=O)c2c1 (single isomer, unassigned) [Compound 104] = ≤ 5.30
Cc1cc([C@@H](C)Nc2ccc(Cl)nc2C(=O)NS(C)(=O)=O)c2nc(-c3cnn(C)c3)n(C)c(=O)c2c1 [Compound 288] = 5.30 to 6.00
Cc1cc([C@H](C)Nc2ccccc2S(N)(=O)=O)c2nc(N3Cc4ccc(F)cc4C3)n(C)c(=O)c2c1 (single isomer, unassigned) [Compound 105] = ≤ 5.30
Cc1cc([C@@H](C)Nc2ccc(Cl)nc2C(=O)NS(C)(=O)=O)c2nc(N3C[C@@H]4CC(c5ccn(C)n5)C[C@H]4C3)n(C)c(=O)c2c1 (single isomer, unassigned) [Compound 426] = ≤ 5.30
Cc1cc([C@@H](C)Nc2ccc(Cl)nc2C(=O)NS(C)(=O)=O)c2nc(N3CCc4oncc4C3)n(C)c(=O)c2c1 [Compound 276] = 5.30 to 6.00

Attention now turns to another entry.
Jot down pIC50 (SKBR3 (PI3Kα-Wild Type) cell line) of Cc1cc([C@@H](C)Nc2ccc(Cl)nc2C(=O)NS(C)(=O)=O)c2nc(NCc3ccc(F)cc3C)n(C)c(=O)c2c1 [Compound 17] .
≤ 5.30

###

- System: T47D (PI3Kα-H1047R) cell line
- Procedure Summary: HTRF phospho-AKT(S473) cell assay in T47D cells
- Assay type: cell-based, human
- Protocol Conditions: Homo sapiens; HTRF phospho-AKT(S473), T47D (PI3Kα-H1047R) cells, 2 hours compound incubation
Give measured IC50 for each item. Keep answers brief.

Cc1cc([C@@H](C)Nc2ccc(Cl)nc2C(=O)NS(C)(=O)=O)c2nc(N3CCC(c4ccnn4C4CC4)CC3)n(C)c(=O)c2c1 [Compound 501] = < 250 nM
Cc1cnc(N2C[C@@H]3[C@H](C2)[C@H]3c2nc3c([C@@H](C)Nc4ccc(Cl)nc4C(=O)NS(C)(=O)=O)cc(C)cc3c(=O)n2C)nc1 [Compound 810] = 250 to 500 nM

Attention now turns to another entry.
Input Cc1cc([C@@H](C)Nc2ccc(Cl)nc2C(=O)NS(C)(=O)=O)c2nc(N3CCC(c4nc(C)n(C(F)F)n4)CC3)n(C)c(=O)c2c1 [Compound 723] , output reported IC50.
250 to 500 nM

###

Give measured pIC50 for each item. Keep answers brief.
- System: T47D (PI3Kα-H1047R) cell line
- Procedure Summary: HTRF phospho-AKT(S473) cell assay in T47D cells
- Format: cell-based, human
- Protocol Conditions: Homo sapiens; HTRF phospho-AKT(S473), T47D (PI3Kα-H1047R) cells, 2 hours compound incubation
pIC50: −log10 of the molar value.

The following compounds have reported results that may help.
Cc1cc([C@@H](C)Nc2ccc(Cl)nc2C(=O)NS(C)(=O)=O)c2nc(-c3ccc4nn(CC5CC5)cc4c3)n(C)c(=O)c2c1 = > 6.60
Cc1cc([C@@H](C)Nc2ccc(Cl)nc2C(=O)NS(C)(=O)=O)c2nc(N3CCC(c4nnc(C5CCC5)o4)CC3)n(C)c(=O)c2c1 = > 6.60

For each of the compounds below, state pIC50.
1. [2H]C([2H])([2H])n1cc2cc(-c3nc4c([C@@H](C)Nc5ccc(Cl)nc5C(=O)NS(C)(=O)=O)cc(C)cc4c(=O)n3C)ccc2n1
2. Cc1cc([C@@H](C)Nc2ccc(Cl)nc2C(=O)NS(C)(=O)=O)c2nc(N3C[C@@H]4[C@H](C3)[C@H]4n3cc(F)c(C)n3)n(C)c(=O)c2c1
3. Cc1cc([C@@H](C)Nc2ccc(Cl)nc2C(=O)NS(C)(=O)=O)c2nc(N3CCN(c4cc(C)n(C)n4)CC3)n(C)c(=O)c2c1

1. > 6.60
2. 6.30 to 6.60
3. > 6.60

Input Cc1cc([C@@H](C)Nc2ccc(Cl)nc2C(=O)NS(C)(=O)=O)c2nc(N3CCC(c4ncc(C5CC5)cn4)CC3)n(C)c(=O)c2c1 , output reported pIC50.
6.30 to 6.60

###

- Tested on: T47D (PI3Kα-H1047R) cell line
- Procedure Summary: HTRF phospho-AKT(S473) cell assay in T47D cells
- Format: cell-based, human
- Protocol Conditions: Homo sapiens; HTRF phospho-AKT(S473), T47D (PI3Kα-H1047R) cells, 2 hours compound incubation
Give measured IC50 for each item. Keep answers brief.

The following compounds have reported results that may help.
Cc1cc([C@@H](C)Nc2ccc(Cl)nc2C(=O)NS(C)(=O)=O)c2nc(-c3ccc(-c4cnn(C)c4)c(F)c3)n(C)c(=O)c2c1 = < 250 nM
[2H]C([2H])([2H])n1ccc([C@H]2[C@@H]3CN(c4nc5c([C@@H](C)Nc6ccc(Cl)nc6C(=O)NS(C)(=O)=O)cc(C)cc5c(=O)n4CC)C[C@@H]32)n1 = < 250 nM
Cc1cc([C@@H](C)Nc2ccc(Cl)nc2C(=O)NS(C)(=O)=O)c2nc(N3CC[C@H](c4ccc(C)nc4)C3)n(C)c(=O)c2c1 (relative stereo) = 250 to 500 nM
COc1ncc(N2CCN(c3nc4c([C@@H](C)Nc5ccc(Cl)nc5C(=O)NS(C)(=O)=O)cc(C)cc4c(=O)n3C)CC2)cn1 = < 250 nM

Attention now turns to another entry.
Jot down IC50 (T47D (PI3Kα-H1047R) cell line) of Cc1cc([C@@H](C)Nc2ccc(Cl)nc2C(=O)NS(C)(=O)=O)c2nc(N3CC[C@H](c4ccnc(C)n4)C3)n(C)c(=O)c2c1 (relative stereo) .
250 to 500 nM

Data origin: patent US12281122B1
